Target: FPR2 (Homo sapiens)
Sequence (P25090 1-351): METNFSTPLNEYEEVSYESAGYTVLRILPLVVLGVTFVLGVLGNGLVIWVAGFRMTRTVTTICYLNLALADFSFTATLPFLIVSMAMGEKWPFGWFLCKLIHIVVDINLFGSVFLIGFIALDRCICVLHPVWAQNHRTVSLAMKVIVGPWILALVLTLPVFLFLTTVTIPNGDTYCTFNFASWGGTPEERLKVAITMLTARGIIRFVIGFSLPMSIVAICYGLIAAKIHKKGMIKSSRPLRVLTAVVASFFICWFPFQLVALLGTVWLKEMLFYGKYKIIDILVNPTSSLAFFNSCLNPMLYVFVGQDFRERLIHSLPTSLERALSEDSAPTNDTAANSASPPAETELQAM
Test: FPR2 activation by intracellular calcium ion increase (Fura-2/AM) in FPR2-RBL cells
Conditions: RBL cells overexpressing FPR2
Non-standard residues stand in square brackets, D forms with d. Residues, ends and D or L forms follow the SMILES beside them. *: point of attachment. 2Nal = N[C@@H](Cc1ccc2ccccc2c1)C(=O)O; Nle = CCCC[C@H](N)C(=O)O; Octanoyl = CCCCCCCC(=O)*
The entries below come with measured EC50 values attached.
// units = nM; emit number, no label

Here's what some known entries look like.
Request: Requested read-out: EC50. Entry: CCCCCCCC(=O)N[C@@H](CCCNC(=N)N)C(=O)N[C@@H](Cc1c[nH]c2ccccc12)C(=O)N[C@@H](CCCNC(=N)N)C(=O)N[C@@H](Cc1c[nH]c2ccccc12)C(=O)N[C@@H](CCCC)C(=O)N[C@@H](Cc1ccc(O)cc1)C(=O)N[C@H](CCSC)C(N)=O [Peptide V5, Oct-RWRW-Nle-Ym-NH2] (Octanoyl-RWRW[Nle]Y[dM]-NH2)
Response: 41.5

Request: Requested read-out: EC50. Entry: CCCCCCCC(=O)N[C@@H](CCCCN)C(=O)N[C@@H](Cc1ccccc1)C(=O)N[C@@H](CCCCN)C(=O)N[C@@H](Cc1c[nH]c2ccccc12)C(=O)N[C@@H](CCCNC(=N)N)C(=O)N[C@@H](Cc1ccc(O)cc1)C(=O)N[C@@H](CCSC)C(=O)N[C@H](C(=O)N[C@H](CCSC)C(N)=O)C(C)C [Peptide V6, Oct-KFKWRYMVm-NH2] (Octanoyl-KFKWRYMV[dM]-NH2)
Response: 4.2

Request: Requested read-out: EC50. Entry: CSCC[C@@H](NC(=O)[C@H](Cc1c[nH]c2ccccc12)NC(=O)[C@H](CCCNC(=N)N)NC(=O)[C@H](Cc1c[nH]c2ccccc12)NC(=O)[C@H](Cc1c[nH]c2ccccc12)NC(=O)[C@@H](NC(=O)[C@H](CCCNC(=N)N)NC(=O)[C@H](Cc1c[nH]c2ccccc12)NC(=O)[C@H](Cc1c[nH]c2ccccc12)NC(=O)[C@H](CCCNC(=N)N)NC(=O)[C@H](Cc1ccc2ccccc2c1)NC(C)=O)C(C)C)C(N)=O [Peptide V22_Ac, Ac-ZRWWRVWWRWm-NH2] (Ac-[2Nal]RWWRVWWRW[dM]-NH2)
Response: 16.2

Request: Requested read-out: EC50. Entry: CSCC[C@@H](NC(=O)[C@H](Cc1c[nH]c2ccccc12)NC(=O)[C@H](CCCNC(=N)N)NC(=O)[C@H](Cc1c[nH]c2ccccc12)NC(=O)[C@H](Cc1c[nH]c2ccccc12)NC(=O)[C@H](CCCNC(=N)N)NC(=O)[C@H](Cc1ccc2ccccc2c1)NC(C)=O)C(N)=O [Peptide V19_Ac, Ac-ZRWWRWm-NH2] (Ac-[2Nal]RWWRW[dM]-NH2)
Response: 69.4

Request: Requested read-out: EC50. Entry: CCCCCCCC(=O)N[C@@H](CCCCN)C(=O)N[C@@H](Cc1ccccc1)C(=O)N[C@@H](CCCCN)C(=O)N[C@@H](Cc1c[nH]c2ccccc12)C(=O)N[C@@H](CCCC)C(=O)N[C@@H](Cc1ccc(O)cc1)C(=O)N[C@H](CCSC)C(N)=O [Peptide V3, Oct-KFKW-Nle-Ym-NH2] (Octanoyl-KFKW[Nle]Y[dM]-NH2)
Response: 107

Others:
Request: Requested read-out: EC50. Entry: CSCC[C@@H](NC(=O)[C@H](Cc1c[nH]c2ccccc12)NC(=O)[C@H](CCCNC(=N)N)NC(=O)[C@H](Cc1c[nH]c2ccccc12)NC(=O)[C@H](Cc1c[nH]c2ccccc12)NC(=O)[C@H](CCCNC(=N)N)NC(=O)[C@H](CCCNC(=N)N)NC(C)=O)C(N)=O [Peptide V24_Ac, Ac-RRWWRWm-NH2] (Ac-RRWWRW[dM]-NH2)
Response: 58.6

Request: Requested read-out: EC50. Entry: CSCC[C@@H](NC(=O)[C@@H](NC(=O)[C@H](CCCNC(=N)N)NC(=O)[C@H](Cc1c[nH]c2ccccc12)NC(=O)[C@H](Cc1c[nH]c2ccccc12)NC(=O)[C@H](CCCNC(=N)N)NC(=O)[C@H](Cc1ccc2ccccc2c1)NC(C)=O)C(C)C)C(N)=O [Peptide V21_Ac, Ac-ZRWWRVm-NH2] (Ac-[2Nal]RWWRV[dM]-NH2)
Response: 92.3
